Measured Remaining ratio(%) after 3 days at 80° C. accompanies every entry in the list below.
assay procedure: Comparative stability test (solid kept at 80° C. for three days, light-shaded and airtight; remaining substance by HPLC)
Format: physicochemical
experimental conditions: 10 mg solid sample, thermostat at 80° C., three days, light-shaded and airtight, HPLC

In the examples that follow, each entry is paired with its recorded Remaining ratio(%) after 3 days at 80° C..
CC(C)COC[C@H](CC(C)C)NC(=O)[C@H]1O[C@@H]1C(=O)[O-].[Na+] [Na salt (obtained through recrystallization and drying in ai] [reference compound] ... 38-77%
CC(C)COC[C@H](CC(C)C)NC(=O)[C@H]1O[C@@H]1C(=O)[O-].[Na+] [Na salt (obtained according to the conventional process)] [reference compound] ... 13-77%
CC(C)COC[C@H](CC(C)C)NC(=O)[C@H]1O[C@@H]1C(=O)[O-].[Na+] [Na salt (obtained in Example 9)] ... 95-98%

--- query ---
input: # input compound: CC(C)COC[C@H](CC(C)C)NC(=O)[C@H]1O[C@@H]1C(=O)[O-].[K+] [K salt (obtained in Example 11)] ; wanted: its Remaining ratio(%) after 3 days at 80° C.
output: 99.9%

Just for reference, patent US7795458B2 is where these values come from.
